measured_attribute: melting point

compound	data_value
Cc1ccccc1-c1nc(C)c2nnc3ccc(F)cc3n12	192 to 195 °C
Cc1nc(-c2ccccc2Cl)n2c1nnc1ccc(F)cc12	189 to 192 °C
COc1ccc2c(c1)nnc1c(C)nc(-c3ccccc3Cl)n12	163 to 165 °C

Ask | Field request: melting point | item: `Cc1nc(-c2ccnn2C)n2c1nnc1ccc(F)cc12`
Reply | 217 to 220 °C

Ask | What do you have for `CCCCOc1ccc(F)c(-c2ccc3nnc4c(C)nc(-c5cc(OCCCC)ccc5F)n4c3c2)c1` ?
Reply | 94 to 95 °C

Ask | How about `CCCOc1ccc(F)c(-c2ccc3nnc4c(C)nc(-c5cc(OCCC)ccc5F)n4c3c2)c1` ?
Reply | 134 to 136 °C

Ask | Now give it for CCC(C)c1nc(C)c2nnc3ccc(F)cc3n12 (centres unmarked) too.
Reply | 169 to 171.5 °C

Ask | Next: `Cc1nc(-c2ccnn2C)n2c1nnc1ccc(Cl)cc12`
Reply | 230 to 231 °C

Ask | Now the same for `Cc1nc(-c2cc(C(F)(F)F)ccc2F)n2c1nnc1cc(F)ccc12`
Reply | 205 to 206 °C

Ask | What do we get for `COc1ccc2c(c1)nnc1c(C)ncn12` ?
Reply | 212 to 215 °C

Ask | Follow-up entry: `CCOc1ccc(F)c(-c2nc(C)c3nnc4ccc(F)cc4n23)c1`
Reply | 189 to 191 °C

* * *

Parameter: IC50. Scope: all listed entries.
# system_under_test: PDE2A (Homo sapiens, UniProt O00408)
# Construct: made in house; host or cells: SF21 insect cells (baculovirus)
# Sequence (O00408 whole entry): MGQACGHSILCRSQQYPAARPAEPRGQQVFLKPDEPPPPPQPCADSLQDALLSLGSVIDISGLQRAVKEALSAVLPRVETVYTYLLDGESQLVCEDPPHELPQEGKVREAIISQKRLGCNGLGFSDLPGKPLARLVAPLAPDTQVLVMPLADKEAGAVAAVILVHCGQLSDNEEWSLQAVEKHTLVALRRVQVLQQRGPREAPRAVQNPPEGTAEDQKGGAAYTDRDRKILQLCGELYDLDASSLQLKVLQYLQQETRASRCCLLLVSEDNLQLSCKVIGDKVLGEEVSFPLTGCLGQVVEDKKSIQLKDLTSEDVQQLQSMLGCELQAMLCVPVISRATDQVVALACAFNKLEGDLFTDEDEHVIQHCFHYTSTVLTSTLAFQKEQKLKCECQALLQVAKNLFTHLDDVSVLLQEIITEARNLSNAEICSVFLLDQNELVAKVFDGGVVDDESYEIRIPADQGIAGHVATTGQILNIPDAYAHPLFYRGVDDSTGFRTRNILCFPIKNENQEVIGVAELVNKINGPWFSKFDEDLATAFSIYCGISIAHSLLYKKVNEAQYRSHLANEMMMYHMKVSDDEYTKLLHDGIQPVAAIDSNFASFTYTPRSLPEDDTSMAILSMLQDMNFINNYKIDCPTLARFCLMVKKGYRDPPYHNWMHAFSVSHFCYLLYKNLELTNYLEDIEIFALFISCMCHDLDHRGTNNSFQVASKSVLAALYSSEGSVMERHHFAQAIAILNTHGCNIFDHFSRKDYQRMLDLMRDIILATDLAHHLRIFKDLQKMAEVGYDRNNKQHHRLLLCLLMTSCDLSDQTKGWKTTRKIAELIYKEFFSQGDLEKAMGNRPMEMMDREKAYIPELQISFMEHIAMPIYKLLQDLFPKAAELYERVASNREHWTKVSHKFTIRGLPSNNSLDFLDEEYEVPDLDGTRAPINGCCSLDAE
# experimental_details: Inhibition of recombinant PDE2A (expressed in baculovirus/SF21-cells), [3H]-cAMP SPA
# Format: biochemical
# Method: Inhibition of Recombinant PDE2A (Expressed in Baculovirus/SF21-Cells) PDE2A (NM002599) was cloned and the gene was inserted in the baculovirus and the enzyme-protein expressed in SF21-cells. The enzyme was isolated from these cells by harvesting the cells by an centrifugation at 200 g to collect the cells. […] PDE2A activity was determined in a one step procedure in microtiterplates. […] One hour later the mixture was measured in a liquid scintillation counter for microtiterplates (Microbeta Trilux). […]
Field format: number, assumed nM, no unit text.

Consider the reported IC50 for these compounds:
smiles	IC50 (nM)
COc1cc(OC)c2nnc3c(C)nc(-c4ccncc4C)n3c2c1	589
COc1cc(F)cc2c1nnc1c(C)nc(-c3cc(Cl)ccc3C)n12	171
Cc1nc(-c2ccccc2Cl)n2c1nnc1ccc(-n3ccnc3)cc12	7.14
COc1cc(OC)c2nnc3c(C)nc(-c4cccnc4C)n3c2c1	196
Cc1nc(C2CCCCC2)n2c1nnc1ccc(F)cc12	541

Ask | Record request: IC50 value, item `COc1cc(F)cc2c1nnc1c(C)nc(-c3cc(Cl)ccc3F)n12`
Reply | 336

Ask | One more compound: `COc1cc(OC(F)F)cc2c1nnc1c(C)nc(-c3cnccc3C)n12`
Reply | 944

Ask | How about `COc1cc(OC)c2nnc3c(C)nc(-c4c(C)nn(C)c4C)n3c2c1` ?
Reply | 292

Ask | Follow-up item: `COc1cncc(-c2nc(C)c3nnc4c(OC)cc(F)cc4n23)c1`
Reply | 1620

* * *

# system_under_test: PDE2A (Homo sapiens)
# Construct: made in house; host or cells: SF21 insect cells (baculovirus)
# experimental_details: Inhibition of recombinant PDE2A (expressed in baculovirus/SF21-cells), [3H]-cAMP SPA
# Assay type: biochemical
IC50 under 40 nM gets TRUE, anything at or over 40 nM gets FALSE.

compound	discrete_label
Cc1ncn2c1nnc1ccc(F)cc12 [Example 11]	FALSE

Ask | # check: IC50 < 40 nM for Cc1nc(-c2cc(Cl)ccc2Cl)n2c1nnc1ccc(F)cc12 [Example 8]
Reply | TRUE

Ask | Please answer likewise for Cc1nc(-c2ccccc2Cl)n2c1nnc1ccc(OCc3ccc(F)cc3)cc12 [Example 187]
Reply | TRUE

Ask | Same thing, different compound: COc1cc(F)c2nnc3c(C)nc(-c4cc(C(N)=O)ccc4F)n3c2c1 [Example 98]
Reply | FALSE

Ask | And COc1cc(F)c2nnc3c(C)nc(-c4sc(C)nc4C)n3c2c1 [Example 91] ?
Reply | FALSE

Ask | // repeat for CCCc1nc(C)c2nnc3cc(OC)ccc3n12 [Example 2] and report
Reply | FALSE

* * *

# system_under_test: PDE10A (Homo sapiens, UniProt Q9Y233)
# Construct: made in house; host or cells: SF21 insect cells (baculovirus)
# Sequence (Q9Y233 1-779 isoform Q9Y233-1): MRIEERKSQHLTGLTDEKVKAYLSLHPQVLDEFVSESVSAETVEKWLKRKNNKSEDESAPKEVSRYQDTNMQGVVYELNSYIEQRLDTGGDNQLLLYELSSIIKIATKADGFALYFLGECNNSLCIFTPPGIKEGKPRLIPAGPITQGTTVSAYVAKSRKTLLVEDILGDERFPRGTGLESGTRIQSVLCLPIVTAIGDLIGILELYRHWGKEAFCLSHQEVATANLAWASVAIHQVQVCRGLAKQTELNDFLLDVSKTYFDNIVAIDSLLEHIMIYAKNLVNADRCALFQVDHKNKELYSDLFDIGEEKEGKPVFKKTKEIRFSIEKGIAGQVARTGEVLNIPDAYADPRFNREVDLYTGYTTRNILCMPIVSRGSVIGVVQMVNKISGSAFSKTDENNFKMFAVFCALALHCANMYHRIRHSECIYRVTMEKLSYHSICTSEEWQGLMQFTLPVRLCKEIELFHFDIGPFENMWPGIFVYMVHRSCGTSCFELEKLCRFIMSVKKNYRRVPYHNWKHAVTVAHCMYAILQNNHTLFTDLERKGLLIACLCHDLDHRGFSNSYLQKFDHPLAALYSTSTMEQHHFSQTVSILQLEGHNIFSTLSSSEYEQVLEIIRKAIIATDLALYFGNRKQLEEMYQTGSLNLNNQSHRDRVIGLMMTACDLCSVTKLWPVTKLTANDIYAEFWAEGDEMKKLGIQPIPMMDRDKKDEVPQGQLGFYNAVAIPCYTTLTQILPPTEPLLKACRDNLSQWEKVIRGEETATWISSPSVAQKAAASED
# experimental_details: Inhibition of recombinant PDE10A (baculovirus/SF21 system), [3H]-cAMP SPA
# Assay type: biochemical
# condition_details: recombinant PDE10A1, cytosolic; 0.1 μM [3H]-cAMP, 37° C., 30 minutes; read-out: PDE10A IC50
The label yes is reserved for IC50 strictly under 5 nM; no covers values equal to or above it.

compound	discrete_label
COc1cc(F)c2nnc3c(C)nc(-c4cc(Cl)ccc4C)n3c2c1 [Example 79]	no

Ask | Please indicate whether the reported IC50 of Cc1cn(-c2ccc3nnc4c(C)nc(CC(C)C)n4c3c2)c(CC(C)C)n1 [Example 182] is strictly below 5 nM.
Reply | no

Ask | Would you mind doing COc1ccc2nnc3c(C)nc(-c4cc(Cl)ccc4Cl)n3c2c1 [Example 5] as well?
Reply | no

Ask | How about this compound: COc1cc(OC)c2nnc3c(C)nc(-c4ccncc4C)n3c2c1 [Example 47]
Reply | yes

Ask | Please do the same for Cc1nc(-c2cc(Cl)ccc2Cl)n2c1nnc1cc(F)ccc12 [Example 6] as well.
Reply | no

Ask | Likewise for COc1cc(N2CCOCC2)cc2c1nnc1c(C)nc(-c3ccccc3Cl)n12 [Example 65] ?
Reply | yes

* * *

// melting point lookup, one value per entry

Here is how some compounds turned out for melting point.
smiles	melting point
COc1cc2nnc3c(C)nc(-c4ccccc4C)n3c2cc1OC	219 to 221 °C
Cc1ncccc1-c1nc(C)c2nnc3ccc(Cl)cc3n12	235 to 236 °C
CCCOc1ccc(F)c(-c2nc(C)c3nnc4ccc(F)cc4n23)c1	153 to 155 °C
Cc1ncn2c1nnc1ccc(Cl)cc12	210 °C

Ask | Could you tell me which melting point is on file for `COc1ccc2nnc3c(C)nc(-c4cc(OC(C)C)ccc4F)n3c2c1` ?
Reply | 204 to 207 °C

Ask | Would you kindly repeat that for `Cc1nc(-c2cc(OC(C)C)ccc2F)n2c1nnc1cc(F)ccc12` ?
Reply | 133 to 136 °C

Ask | Same for `COc1ccccc1-c1nc(C)c2nnc3cc(F)ccc3n12`
Reply | 249 to 251 °C

Ask | Next: `COc1cc2nnc3c(C)nc(-c4cc(Cl)ccc4Cl)n3c2cc1OC`
Reply | 175 °C

Ask | Now try `CCc1nc(C)c2nnc3ccc(F)cc3n12` .
Reply | 187 to 190 °C

* * *

# system_under_test: PDE10A (Homo sapiens, UniProt Q9Y233)
# Construct: made in house; host or cells: SF21 insect cells (baculovirus)
# experimental_details: Inhibition of recombinant PDE10A (baculovirus/SF21 system), [3H]-cAMP SPA
# Type: biochemical
# condition_details: recombinant PDE10A1, cytosolic; 0.1 μM [3H]-cAMP, 37° C., 30 minutes; read-out: PDE10A IC50
measured_attribute: IC50

Known results for compounds:
compound	IC50
COc1cc(C(F)(F)F)cc2c1nnc1c(C)nc(-c3ccoc3)n12 [Example 143]	57 nM
Cc1nc(-c2cc(C(F)(F)F)ccc2F)n2c1nnc1ccc(-c3cc(C(F)(F)F)ccc3F)cc12 [Example 176]	117 nM

Continue with the next compound.
Ask | Lab note: need IC50 with PDE10A (Homo sapiens, UniProt Q9Y233) for entry COc1cc(F)cc2c1nnc1c(C)nc(-c3cc(C(F)(F)F)ccc3Cl)n12 [Example 101] , please look it up.
Reply | 43 nM

* * *

# system_under_test: PDE10A (Homo sapiens, UniProt Q9Y233)
# Construct: made in house; host or cells: SF21 insect cells (baculovirus)
# experimental_details: Inhibition of recombinant PDE10A (baculovirus/SF21 system), [3H]-cAMP SPA
# Format: biochemical
# condition_details: recombinant PDE10A1, cytosolic; 0.1 μM [3H]-cAMP, 37° C., 30 minutes; read-out: PDE10A IC50
measured_attribute: pIC50
Note on units: pIC50 is unitless, being -log10 of a concentration expressed in mol/L.

Known pIC50 results, listed for orientation:
smiles	pIC50
COc1ccccc1-c1nc(C)c2nnc3cc(F)ccc3n12	6.20
Cc1nc(-c2ccccc2Cl)n2c1nnc1ccc(-c3ccccc3Cl)cc12	8.18
COc1cc(F)cc2c1nnc1c(C)nc(-c3cc(C)ccc3Cl)n12	8.53

// switching to the query compound
Ask | Fill in: pIC50 of `COc1ccc(Cl)c(-c2nc(C)c3nnc4c(F)cc(OC)cc4n23)c1` is ___
Reply | 8.07
